- test-target: UniProt Q96GD4
- method-summary: Aurora-1 (Aurora B) inhibition assay (radiometric)
- Format: biochemical
- stated-conditions: read-out: Aurora B kinase Ki value
pKi: −log10 of the molar value.
Parameter: pKi. Scope: all listed entries.
measurement-kind: pKi

1. CCC(=O)Nc1ccc(Sc2nc(Nc3cc(C)n[nH]3)cc(N3CC(O)(C(C)(C)C)C3)n2)cc1 [Compound 81] ... ≥ 8.00
2. Cc1cc(Nc2cc(N3CCC3)nc(Sc3ccc(NC(=O)c4cccc(CN(C)C)c4)cc3)n2)[nH]n1 [Compound 138] ... 5.70 to 7.30
3. Cc1ccc(S(=O)(=O)Nc2ccc(Sc3nc(Nc4cc(C)[nH]n4)cc(N4CCC4)n3)cc2)cc1 [Compound 27] ... 5.70 to 7.30
4. Cc1cc(Nc2cc(N3CCC3)nc(Sc3ccc(NC(=O)C4CC4)cc3)n2)n[nH]1 [Compound 17] ... 7.30 to 8.00
5. Cc1cc(Nc2cc(N3CC(O)(C4CC4)C3)nc(Sc3ccc4ccccc4c3)n2)n[nH]1 [Compound 131] ... 5.70 to 7.30
6. CC1=NN=C(Nc2cc(N3CCC3)nc(Sc3ccc(NC(=O)c4ccccc4)cc3)n2)C1 [Compound 52] ... 5.70 to 7.30

====

- test-target: Aurora-1 (Aurora B) (Homo sapiens)
- Sequence (Q96GD4 whole entry): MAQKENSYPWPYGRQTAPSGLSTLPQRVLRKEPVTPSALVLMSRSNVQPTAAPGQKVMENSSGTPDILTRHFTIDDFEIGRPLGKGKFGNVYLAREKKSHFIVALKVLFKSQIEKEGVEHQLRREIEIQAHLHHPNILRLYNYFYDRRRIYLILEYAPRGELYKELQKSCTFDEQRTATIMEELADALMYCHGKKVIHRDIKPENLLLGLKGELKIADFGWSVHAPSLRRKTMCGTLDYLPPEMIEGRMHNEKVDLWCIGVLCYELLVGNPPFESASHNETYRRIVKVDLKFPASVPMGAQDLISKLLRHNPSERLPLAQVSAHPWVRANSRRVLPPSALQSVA
- method-summary: Aurora-1 (Aurora B) inhibition assay (radiometric)
- Format: biochemical
- stated-conditions: read-out: Aurora B kinase Ki value
pKi: −log10 of the molar value.
measurement-kind: pKi

1) O=C(Nc1ccc(Sc2nc(Nc3cc(CO)[nH]n3)cc(N3CCC3)n2)cc1)c1ccccc1Cl [Compound 75] ... 5.70 to 7.30
2) CCN(C)C(=O)c1ccc(Sc2nc(Nc3cc(C)[nH]n3)cc(N3CC(O)(C4CC4)C3)n2)cc1 [Compound 125] ... 5.70 to 7.30
3) Cc1cc(Nc2cc(N3CCC3)nc(Sc3ccc(NC(=O)c4ccccc4N(C)C)cc3)n2)[nH]n1 [Compound 124] ... 5.70 to 7.30
4) Cc1cnc(Nc2cc(N3CCC3)nc(Sc3ccc(NC(=O)C4CC4)cc3)n2)s1 [Compound 4] ... 5.70 to 7.30
5) CCCCOC1(C2CC2)CN(c2cc(Nc3cc(C)n[nH]3)nc(Sc3ccc(NC(=O)C4CC4)cc3)n2)C1 [Compound 111] ... ≥ 8.00
6) CCC(=O)Nc1ccc(Sc2nc(Nc3cc(C)n[nH]3)cc(N3CC(C)(O)C3)n2)cc1 [Compound 71] ... 7.30 to 8.00
7) Cc1cc(Nc2cc(N3CCC3)nc(Sc3ccc(NC(=O)C(C)(C)C)cc3)n2)[nH]n1 [Compound 114] ... 7.30 to 8.00
8) COC1CN(c2cc(Nc3cc(C)[nH]n3)nc(Sc3ccc(NC(=O)c4ccccc4Cl)cc3)n2)C1 [Compound 12] ... ≥ 8.00

====

Target protein (sequence): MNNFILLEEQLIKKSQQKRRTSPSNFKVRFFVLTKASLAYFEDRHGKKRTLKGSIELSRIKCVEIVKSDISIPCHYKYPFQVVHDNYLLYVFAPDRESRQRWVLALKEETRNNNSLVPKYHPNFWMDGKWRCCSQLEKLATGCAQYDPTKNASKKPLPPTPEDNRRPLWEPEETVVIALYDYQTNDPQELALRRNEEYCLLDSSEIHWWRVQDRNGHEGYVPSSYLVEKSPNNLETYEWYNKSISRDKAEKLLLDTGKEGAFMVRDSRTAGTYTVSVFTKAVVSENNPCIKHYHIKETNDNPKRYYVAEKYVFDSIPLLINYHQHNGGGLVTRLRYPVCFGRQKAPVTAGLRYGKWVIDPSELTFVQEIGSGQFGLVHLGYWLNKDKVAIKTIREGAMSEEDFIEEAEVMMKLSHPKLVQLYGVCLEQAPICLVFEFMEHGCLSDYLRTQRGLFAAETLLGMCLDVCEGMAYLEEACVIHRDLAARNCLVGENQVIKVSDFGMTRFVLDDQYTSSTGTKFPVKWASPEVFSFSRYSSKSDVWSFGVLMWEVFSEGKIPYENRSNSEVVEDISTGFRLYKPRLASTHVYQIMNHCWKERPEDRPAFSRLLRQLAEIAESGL
measurement-kind: Ki

1. Cc1cc(Nc2cc(N3CCC3)nc(Sc3ccc(NC(=O)c4cccc(C)c4Cl)cc3)n2)n[nH]1 ... 100 to 1000 nM
2. Cc1cc(Nc2cc(N3CCC3)nc(Sc3ccc(NC(=O)CC(F)(F)F)cc3)n2)n[nH]1 ... 100 to 1000 nM
3. Cc1ccc(S(=O)(=O)Nc2ccc(Sc3nc(Nc4cc(C)[nH]n4)cc(N4CCC4)n3)cc2)cc1 ... 1000 to 2000 nM
4. CC1=NN=C(Nc2cc(N3CCC3)nc(Sc3ccc(NC(=O)c4cccc(C(F)(F)F)c4F)cc3)n2)C1 ... 100 to 1000 nM
5. CCC(=O)Nc1ccc(Sc2nc(Nc3cc(C4CC4)n[nH]3)cc(N3CC(C)(O)C3)n2)cc1 ... ≤ 100 nM
6. Cc1cc(Nc2cc(N3CCC3)nc(Sc3ccc(NC(=O)c4ccc(Cl)cc4)cc3)n2)n[nH]1 ... 100 to 1000 nM
7. Cc1cc(Nc2cc(N3CCC3)nc(Sc3ccc(NC(=O)C4CC4)cc3)n2)n[nH]1 ... 100 to 1000 nM
8. Cc1cc(Nc2cc(N3CCC3)nc(Sc3ccc(NC(=O)c4nccn4C)cc3)n2)n[nH]1 ... 1000 to 2000 nM

====

- test-target: UniProt:Q96GD4
- method-summary: Aurora-1 (Aurora B) inhibition assay (radiometric)
- Assay type: biochemical
- stated-conditions: read-out: Aurora B kinase Ki value
Parameter: Ki. Scope: all listed entries.
measurement-kind: Ki

1. CCNC(=O)c1ccc(Sc2nc(Nc3cc(C)[nH]n3)cc(N3CCC3)n2)cc1 ... 0.01 to 0.05 µM
2. Cc1cnc(Nc2cc(N3CC(N(C)C)C3)nc(Sc3ccc(NC(=O)C4CC4)cc3)n2)s1 ... 0.01 to 0.05 µM
3. Cc1cc(Nc2cc(N3CCC3)nc(Sc3ccc(NC(=O)c4nccn4C)cc3)n2)n[nH]1 ... 0.05 to 2 µM
4. CCC(=O)Nc1ccc(Sc2nc(Nc3cc(C)n[nH]3)cc(N3CC(C)(N4CCCC4)C3)n2)cc1 ... ≤ 0.01 µM
5. Cc1cc(Nc2cc(N3CCC3)nc(Sc3ccc(NC(=O)c4ocnc4C)cc3)n2)n[nH]1 ... 0.05 to 2 µM
6. Cc1cc(Nc2cc(N3CC(F)(C4CC4)C3)nc(Sc3ccc4c(c3)CN(CC(F)(F)F)C4=O)n2)[nH]n1 ... ≤ 0.01 µM
7. CC(=O)Nc1ccc(Nc2nc(Nc3cc(C)n[nH]3)cc(N3CC(F)(C4CC4)C3)n2)cc1 ... 0.05 to 2 µM
8. Cc1cc(Nc2cc(N3CCC3)nc(Sc3ccc(NC(=O)c4ccc(Cl)cc4)cc3)n2)n[nH]1 ... 0.05 to 2 µM
9. CCC(=O)Nc1ccc(Sc2nc(Nc3cc(C)n[nH]3)cc(N3CC(C)(NC(C)(C)C)C3)n2)cc1 ... 0.01 to 0.05 µM
10. CC(=O)OC1(C2CC2)CN(c2cc(Nc3cc(C)n[nH]3)nc(Sc3ccc(NC(=O)C4CC4)cc3)n2)C1 ... 0.01 to 0.05 µM
11. CCOc1ccc(Sc2nc(Nc3cc(C)n[nH]3)cc(N3CC(C(=O)N4CCCC4)C3)n2)cc1 ... 0.05 to 2 µM
12. Cc1cc(Nc2cc(N3CC(F)C3)nc(Sc3ccc(NC(=O)c4ccccc4Cl)cc3)n2)[nH]n1 ... 0.01 to 0.05 µM
13. Cc1cc(Nc2cc(N3CCC3)nc(Sc3ccc(NC(=O)c4ccncc4C(F)(F)F)cc3)n2)[nH]n1 ... ≤ 0.01 µM
14. Cc1cc(Nc2nc(Sc3ccc(NC(=O)c4ccccc4Cl)cc3)nc(N3CCC3)c2F)[nH]n1 ... 0.01 to 0.05 µM
15. Cc1cc(Nc2cc(N3CCC3)nc(Sc3ccc4ccccc4c3)n2)n[nH]1 ... 0.05 to 2 µM
16. Cc1cc(Nc2cc(N3CCC3)nc(Sc3ccc(NC(=O)C4CCCCC4)cc3)n2)n[nH]1 ... 0.01 to 0.05 µM
17. CCN(CC)C(=O)Nc1ccc(Sc2nc(Nc3cc(C)[nH]n3)cc(N3CCC3)n2)cc1 ... 0.05 to 2 µM
18. Cc1cc(Nc2cc(N3CC(C)(F)C3)nc(Sc3ccc(NC(=O)CC(F)(F)F)cc3)n2)n[nH]1 ... ≤ 0.01 µM
19. Cc1cc(Nc2cc(N3CCC3)nc(Sc3ccc(C(=O)Nc4ccccc4Cl)cc3)n2)[nH]n1 ... ≤ 0.01 µM
20. Cc1cc(Nc2cc(N3CC(O)(C4CC4)C3)nc(Sc3ccc(NC(=O)C4CC4)c(F)c3)n2)[nH]n1 ... 0.01 to 0.05 µM
21. Cc1cc(Nc2cc(N3CCC3)nc(Sc3ccc(NS(C)(=O)=O)cc3)n2)[nH]n1 ... 0.05 to 2 µM
22. Cc1cc(Nc2cc(N3CC(C)(O)C3)nc(Sc3ccc(NC(=O)c4ccccc4Cl)cc3)n2)[nH]n1 ... ≤ 0.01 µM
23. Cc1cnc(Nc2cc(N3CC(N)C3)nc(Sc3ccc(NC(=O)C4CC4)cc3)n2)s1 ... 0.05 to 2 µM

The measured values listed here are drawn from patent US8637511B2.
